The reported numbers originate from paper PMC5984530.

target under test: CHIL1^V139F (Humulus lupulus, UniProt A0A2U7XUH7, V139F)
Sequence (A0A2U7XUH7 1-214 V139F): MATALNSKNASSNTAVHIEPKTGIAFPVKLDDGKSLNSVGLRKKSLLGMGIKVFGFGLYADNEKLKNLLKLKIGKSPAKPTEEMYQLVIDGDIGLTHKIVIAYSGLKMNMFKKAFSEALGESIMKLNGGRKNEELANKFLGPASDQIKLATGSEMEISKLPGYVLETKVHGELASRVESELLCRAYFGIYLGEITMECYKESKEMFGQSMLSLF
experiment summary: Differential scanning fluorimetry binding assay with CHIL1 V139F mutant
quantity measured: Kd (µM)

{"compound": "CC(C)=CCc1c(O)cc(O)c(C(=O)/C=C/c2ccc(O)cc2)c1O [DMX, demethylxanthohumol]", "target under test": "CHIL1^V139F (Humulus lupulus, UniProt A0A2U7XUH7, V139F)", "value reported": 10}
